Target: T1, IRF4 DBD C99S (Homo sapiens, UniProt Q15306 20-132, C99S)
T1 sequence: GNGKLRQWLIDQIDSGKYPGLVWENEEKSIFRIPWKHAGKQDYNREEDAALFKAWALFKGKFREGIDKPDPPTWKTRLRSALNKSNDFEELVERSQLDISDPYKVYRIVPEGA
Test: SPR steady state; FP: PBS + 0.05% Tween20, 5 nM DNA, 1 h, room temperature; SPR: Biacore S200, SA chip, protein 0.1-4500 nM, running buffer not given in material; errors are SD
Details: protein: recombinant; label: 3' biotin; hairpin, TTTT loop
QUANTITY: pKd
Just so you know, pKd here is -log10 of the concentration in molar units; reply with that number alone.

## Task Request the reported pKd associated with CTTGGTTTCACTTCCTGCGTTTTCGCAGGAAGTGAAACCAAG (structured_DNA) [IRE hairpin (biotin)]
## Result 6.47
